Test system: HOP-62
protocol_notes: relative viability (nuclei count vs DMSO), 5 days (fraction); higher = more cells survive
experimental_context: first compound 1.265 µM
property_name: relative viability
Write no unit; give the number alone.

Look over these answered cases.
- compound: "Cc1sc2c(c1C)C(c1ccc(Cl)cc1)=N[C@@H](CC(=O)OC(C)(C)C)c1nnc(C)n1-2 [JQ1] + C[C@]1(O)C[C@@H](c2nc(-c3ccc4ccc(-c5ccccc5)nc4c3)c3c(N)nccn32)C1 [Linsitinib] (partner 1 µM)"
  relative viability: 0.11
- compound: "Cc1sc2c(c1C)C(c1ccc(Cl)cc1)=N[C@@H](CC(=O)OC(C)(C)C)c1nnc(C)n1-2 [JQ1] + C[C@@H](Oc1cc(-c2cnn(C3CCNCC3)c2)cnc1N)c1c(Cl)ccc(F)c1Cl [Crizotinib] (partner 1 µM)"
  relative viability: 0.119
- compound: "Cc1sc2c(c1C)C(c1ccc(Cl)cc1)=N[C@@H](CC(=O)OC(C)(C)C)c1nnc(C)n1-2 [JQ1] + CC1(C)CCC(c2ccc(Cl)cc2)=C(CN2CCN(c3ccc(C(=O)NS(=O)(=O)c4ccc(N[C@H](CCN5CCOCC5)CSc5ccccc5)c(S(=O)(=O)C(F)(F)F)c4)cc3)CC2)C1 [Navitoclax] (partner 0.5 µM)"
  relative viability: 0.133
- compound: "Cc1sc2c(c1C)C(c1ccc(Cl)cc1)=N[C@@H](CC(=O)OC(C)(C)C)c1nnc(C)n1-2 [JQ1] + CS(=O)(=O)CCNCc1ccc(-c2ccc3ncnc(Nc4ccc(OCc5cccc(F)c5)c(Cl)c4)c3c2)o1 [Lapatinib] (partner 2 µM)"
  relative viability: 0.241
- compound: "Cc1sc2c(c1C)C(c1ccc(Cl)cc1)=N[C@@H](CC(=O)OC(C)(C)C)c1nnc(C)n1-2 [JQ1] + CC(C)C[C@H](NC(=O)[C@H](Cc1ccccc1)NC(=O)c1cnccn1)B(O)O [Bortezomib] (partner 0.002 µM)"
  relative viability: 0.11

Query string: Name the recorded relative viability of the compound listed here: Cc1sc2c(c1C)C(c1ccc(Cl)cc1)=N[C@@H](CC(=O)OC(C)(C)C)c1nnc(C)n1-2 [JQ1] + CC(=O)Nc1cccc(-n2c(=O)n(C3CC3)c(=O)c3c(Nc4ccc(I)cc4F)n(C)c(=O)c(C)c32)c1 [Trametinib] (partner 0.02 µM)
Result string: 0.119

Query string: Name the recorded relative viability of the compound listed here: Cc1sc2c(c1C)C(c1ccc(Cl)cc1)=N[C@@H](CC(=O)OC(C)(C)C)c1nnc(C)n1-2 [JQ1] + O=C(CCCCCCC(=O)Nc1ccccc1)NO [Vorinostat] (partner 1 µM)
Result string: 0.12

----------
Tested on: NCI-H23
protocol_notes: relative viability (nuclei count vs DMSO), 5 days (fraction); higher = more cells survive
experimental_context: first compound 5 µM
# relative viability per record follows
Write no unit; give the number alone.

Look over these answered cases.
- compound: "O=C(O)CCCCC(CCSCc1ccccc1)SCc1ccccc1 (stereo not drawn) [CPI-613] + CC1(C)CCC(c2ccc(Cl)cc2)=C(CN2CCN(c3ccc(C(=O)NS(=O)(=O)c4ccc(N[C@H](CCN5CCOCC5)CSc5ccccc5)c(S(=O)(=O)C(F)(F)F)c4)cc3)CC2)C1 [Navitoclax] (partner 0.5 µM)"
  value_measured: 0.858
- compound: "O=C(O)CCCCC(CCSCc1ccccc1)SCc1ccccc1 (stereo not drawn) [CPI-613] + CC(=O)c1c(C)c2cnc(Nc3ccc(N4CCNCC4)cn3)nc2n(C2CCCC2)c1=O [Palbociclib] (partner 0.5 µM)"
  value_measured: 0.465

Could you now consider this next compound?
Query string: Name the recorded relative viability of the compound listed here: O=C(O)CCCCC(CCSCc1ccccc1)SCc1ccccc1 (stereo not drawn) [CPI-613] + CC(=O)Nc1cccc(-n2c(=O)n(C3CC3)c(=O)c3c(Nc4ccc(I)cc4F)n(C)c(=O)c(C)c32)c1 [Trametinib] (partner 0.02 µM)
Result string: 0.394

----------
# relative viability per record follows
System: NCI-H1915
protocol_notes: relative viability (nuclei count vs DMSO), 5 days (fraction); higher = more cells survive
experimental_context: first compound 4 µM
Write no unit; give the number alone.

- molecule: "Cc1sc2c(c1C)C(c1ccc(Cl)cc1)=N[C@@H](CC(=O)OC(C)(C)C)c1nnc(C)n1-2 [JQ1] + COc1cc2c(Oc3ccc(NC(=O)C4(C(=O)Nc5ccc(F)cc5)CC4)cc3F)ccnc2cc1OCCCN1CCOCC1 [Foretinib] (partner 0.25 µM)"
  measurement_target: "NCI-H1915"
  relative viability: 0.449

Query string: Give relative viability for Cc1sc2c(c1C)C(c1ccc(Cl)cc1)=N[C@@H](CC(=O)OC(C)(C)C)c1nnc(C)n1-2 [JQ1] + CC(=O)c1c(C)c2cnc(Nc3ccc(N4CCNCC4)cn3)nc2n(C2CCCC2)c1=O [Palbociclib] (partner 0.5 µM) tested on NCI-H1915.
Result string: 0.179

Query string: Give relative viability for Cc1sc2c(c1C)C(c1ccc(Cl)cc1)=N[C@@H](CC(=O)OC(C)(C)C)c1nnc(C)n1-2 [JQ1] + COc1cccc2cc(-c3nc([C@H]4CC[C@H](C(=O)O)CC4)n4ncnc(N)c34)[nH]c12 [OSI-027] (partner 0.5 µM) tested on NCI-H1915.
Result string: 0.217

Query string: Give relative viability for Cc1sc2c(c1C)C(c1ccc(Cl)cc1)=N[C@@H](CC(=O)OC(C)(C)C)c1nnc(C)n1-2 [JQ1] + NC(=O)Nc1cc(-c2cccc(F)c2)sc1C(=O)N[C@H]1CCCNC1 [AZD7762] (partner 0.2 µM) tested on NCI-H1915.
Result string: 0.241

Query string: Give relative viability for Cc1sc2c(c1C)C(c1ccc(Cl)cc1)=N[C@@H](CC(=O)OC(C)(C)C)c1nnc(C)n1-2 [JQ1] + CS(=O)(=O)N1CCN(Cc2cc3nc(-c4cccc5[nH]ncc45)nc(N4CCOCC4)c3s2)CC1 [Pictilisib] (partner 1 µM) tested on NCI-H1915.
Result string: 0.226

Query string: Give relative viability for Cc1sc2c(c1C)C(c1ccc(Cl)cc1)=N[C@@H](CC(=O)OC(C)(C)C)c1nnc(C)n1-2 [JQ1] + Cc1cc(Nc2cc(N3CCN(C)CC3)nc(Sc3ccc(NC(=O)C4CC4)cc3)n2)n[nH]1 [Tozasertib] (partner 0.1 µM) tested on NCI-H1915.
Result string: 0.15

----------
Tested on: NCI-H1666
protocol_notes: relative viability (nuclei count vs DMSO), 5 days (fraction); higher = more cells survive
experimental_context: first compound 2.53 µM
property_name: relative viability

- molecule: "O=c1[nH]c2ccccc2n1C1CCN(CCCC(c2ccc(F)cc2)c2ccc(F)cc2)CC1 [Pimozide] + Cc1cc(Nc2cc(N3CCN(C)CC3)nc(Sc3ccc(NC(=O)C4CC4)cc3)n2)n[nH]1 [Tozasertib] (partner 0.1 µM)"
  property_name: "relative viability"
  value_measured: 0.559

Could you now consider this next molecule?
Query string: Name the recorded relative viability of the molecule listed here: Cc1cnc(-c2cnc(NCCNc3ccc(C#N)cn3)nc2-c2ccc(Cl)cc2Cl)[nH]1 + O=C(c1cc(Cc2n[nH]c(=O)c3ccccc23)ccc1F)N1CCN(C(=O)C2CC2)CC1 [Olaparib] (partner 8 µM)
Result string: 0.781

----------
# relative viability per record follows
System: NCI-H358
protocol_notes: relative viability (nuclei count vs DMSO), 5 days (fraction); higher = more cells survive
experimental_context: first compound 0.01581 µM

- compound: "Nc1ccn([C@@H]2O[C@H](CO)[C@@H](O)[C@@H]2O)c(=O)n1 [Cytarabine] + O=C(CCCCCCC(=O)Nc1ccccc1)NO [Vorinostat] (partner 1 µM)"
  relative viability: 0.557
- compound: "Nc1ccn([C@@H]2O[C@H](CO)[C@@H](O)[C@@H]2O)c(=O)n1 [Cytarabine] + CCNC(=O)c1noc(-c2cc(C(C)C)c(O)cc2O)c1-c1ccc(CN2CCOCC2)cc1 [Luminespib] (partner 0.01 µM)"
  relative viability: 0.582
- compound: "COc1cc2nccc(Oc3ccc(NC(=O)Nc4cc(C)on4)c(Cl)c3)c2cc1OC [Tivozanib] + NC(=O)Nc1cc(-c2cccc(F)c2)sc1C(=O)N[C@H]1CCCNC1 [AZD7762] (partner 0.2 µM)"
  relative viability: 0.621

Could you now consider this next compound?
Query string: Name the recorded relative viability of the compound listed here: COc1cc2nccc(Oc3ccc(NC(=O)Nc4cc(C)on4)c(Cl)c3)c2cc1OC [Tivozanib] + C[C@@H](Oc1cc(-c2cnn(C3CCNCC3)c2)cnc1N)c1c(Cl)ccc(F)c1Cl [Crizotinib] (partner 1 µM)
Result string: 0.706

----------
Test system: NCI-H2347
protocol_notes: relative viability (nuclei count vs DMSO), 5 days (fraction); higher = more cells survive
experimental_context: first compound 0.02 µM
# relative viability per record follows
Write no unit; give the number alone.

Look over these answered cases.
- molecule: "CC(=O)O[C@@]12CO[C@@H]1C[C@H](O)[C@@]1(C)C(=O)[C@H](O)C3=C(C)[C@@H](OC(=O)[C@H](O)[C@@H](NC(=O)OC(C)(C)C)c4ccccc4)C[C@@](O)([C@@H](OC(=O)c4ccccc4)[C@H]21)C3(C)C [Docetaxel] + CCNC(=O)c1noc(-c2cc(C(C)C)c(O)cc2O)c1-c1ccc(CN2CCOCC2)cc1 [Luminespib] (partner 0.01 µM)"
  measurement_target: "NCI-H2347"
  value_measured: 0.34
- molecule: "CC(=O)O[C@@]12CO[C@@H]1C[C@H](O)[C@@]1(C)C(=O)[C@H](O)C3=C(C)[C@@H](OC(=O)[C@H](O)[C@@H](NC(=O)OC(C)(C)C)c4ccccc4)C[C@@](O)([C@@H](OC(=O)c4ccccc4)[C@H]21)C3(C)C [Docetaxel] + CC1(C)CCC(c2ccc(Cl)cc2)=C(CN2CCN(c3ccc(C(=O)NS(=O)(=O)c4ccc(N[C@H](CCN5CCOCC5)CSc5ccccc5)c(S(=O)(=O)C(F)(F)F)c4)cc3)CC2)C1 [Navitoclax] (partner 0.5 µM)"
  measurement_target: "NCI-H2347"
  value_measured: 0.258
- molecule: "CC(=O)O[C@@]12CO[C@@H]1C[C@H](O)[C@@]1(C)C(=O)[C@H](O)C3=C(C)[C@@H](OC(=O)[C@H](O)[C@@H](NC(=O)OC(C)(C)C)c4ccccc4)C[C@@](O)([C@@H](OC(=O)c4ccccc4)[C@H]21)C3(C)C [Docetaxel] + O=C(c1cc(Cc2n[nH]c(=O)c3ccccc23)ccc1F)N1CCN(C(=O)C2CC2)CC1 [Olaparib] (partner 8 µM)"
  measurement_target: "NCI-H2347"
  value_measured: 0.388

Could you now consider this next molecule?
Query string: Name the recorded relative viability of the molecule listed here: CC(=O)O[C@@]12CO[C@@H]1C[C@H](O)[C@@]1(C)C(=O)[C@H](O)C3=C(C)[C@@H](OC(=O)[C@H](O)[C@@H](NC(=O)OC(C)(C)C)c4ccccc4)C[C@@](O)([C@@H](OC(=O)c4ccccc4)[C@H]21)C3(C)C [Docetaxel] + CS(=O)(=O)N1CCN(Cc2cc3nc(-c4cccc5[nH]ncc45)nc(N4CCOCC4)c3s2)CC1 [Pictilisib] (partner 1 µM)
Result string: 0.066
